study-system: Biotinylated KRAS G12C protein (Homo sapiens (Human), UniProt P01116, C118S/C51S/C80L/G12C)
Sequence (P01116 other isoform, or with tags, fused parts or gaps, stated change not applied): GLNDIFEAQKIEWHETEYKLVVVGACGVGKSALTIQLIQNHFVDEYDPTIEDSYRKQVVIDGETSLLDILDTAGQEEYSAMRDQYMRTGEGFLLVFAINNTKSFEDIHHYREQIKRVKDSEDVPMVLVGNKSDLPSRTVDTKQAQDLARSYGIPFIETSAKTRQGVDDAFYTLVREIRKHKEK
procedure-text: SOS-catalyzed nucleotide exchange assay (TR-FRET)
Format: biochemical
protocol-conditions: in vitro apparent potency; preincubation time of 60 minutes prior to addition of SOS
Binned IC50; ranges: band A: < 3 nM; band B: ≥ 3 nM and < 10 nM; band C: ≥ 10 nM

C=CC(=O)N1CCN(c2nc(=O)n3c4nc(c(F)cc24)-c2c(F)cccc2CC[C@@H](O)Cc2ccnc(C(C)C)c2-3)[C@@H](C)C1 = band C
C=CC(=O)N1C[C@H](C)N(c2nc(=O)n3c4nc(c(F)cc24)-c2c(F)cccc2OCC(F)(F)COc2ccnc(C(C)C)c2-3)C[C@H]1C (single isomer, unassigned) [Example 13a] = band B
C=CC(=O)N1C[C@H](C)N(c2nc(=O)n3c4nc(c(F)cc24)-c2c(F)ccc(F)c2OC[C@H](C)Oc2ccnc(C(C)C)c2-3)C[C@H]1C = band B
C=CC(=O)N1C[C@H](C)N(c2nc(=O)n3c4nc(c(F)cc24)-c2c(F)ccc(F)c2OCC2(CCc4ccnc(C(C)C)c4-3)CC2)C[C@H]1C = band A
C=CC(=O)N1CCN(c2nc(=O)n3c4nc(c(F)cc24)-c2c(ccc(F)c2F)OCC(F)(F)CCc2ccnc(C(C)C)c2-3)C[C@H]1C = band B

In plain terms, what class is C=CC(=O)N1CCN(c2nc(=O)n3c4nc(c(F)cc24)-c2cccc4cnn(c24)CCCCc2ccnc(C(C)C)c2-3)[C@@H](C)C1 ? band B

In plain terms, what class is C=CC(=O)N1C[C@H](C)N(c2nc(=O)n3c4nc(c(Cl)cc24)-c2cc(F)cc(F)c2OCCCc2ccnc(C(C)C)c2-3)C[C@H]1C ? band B

In plain terms, what class is C=CC(=O)N1CCN(c2nc(=O)n3c4nc(c(F)cc24)-c2c(F)cccc2CCOCCc2ccnc(C(C)C)c2-3)[C@H](C)C1 [Example 17b] ? band C

In plain terms, what class is C=CC(=O)N1C[C@H](C)N(c2nc(=O)n3c4nc(c(F)cc24)-c2c(F)ccc(F)c2OCCCc2ccnc(C(C)C)c2-3)C[C@H]1C ? band A

In plain terms, what class is C=CC(=O)N1CCN(c2nc(=O)n3c4nc(c(F)cc24)-c2c(F)cccc2OCCCOc2ccnc(C(C)C)c2-3)[C@@H](C)C1 ? band C

----------
study-system: Biotinylated KRAS G12C protein (Homo sapiens (Human), UniProt P01116, C118S/C51S/C80L/G12C)
procedure-text: SOS-catalyzed nucleotide exchange assay (TR-FRET)
Type: biochemical
protocol-conditions: in vitro apparent potency; preincubation time of 60 minutes prior to addition of SOS
quantity-measured: IC50

Please review the entries below; each comes with its answer.
C=CC(=O)N1C[C@H](C)N(c2nc(=O)n3c4nc(c(F)cc24)-c2cc(F)cc4cnn(c24)CCCCc2ccnc(C(C)C)c2-3)C[C@H]1C = 20 nM
C=CC(=O)N1C[C@H](C)N(c2nc(=O)n3c4nc(c(F)cc24)-c2c(ccc(F)c2F)OCC2(CCc4ccnc(C(C)C)c4-3)CC2)C[C@H]1C = 3.5 nM

// below: IC50 requested for another compound
Please look up its IC50: C=CC(=O)N1C[C@H](C)N(c2nc(=O)n3c4nc(c(F)cc24)-c2c(F)cccc2OC(C)CCc2ccnc(C(C)C)c2-3)C[C@H]1C (single isomer, unassigned) 2.9 nM

----------
// IC50 lookup, one value per entry
study-system: Biotinylated KRAS G12C protein (Homo sapiens (Human), UniProt P01116, C118S/C51S/C80L/G12C)
procedure-text: SOS-catalyzed nucleotide exchange assay (TR-FRET)
Type: biochemical
protocol-conditions: in vitro apparent potency; preincubation time of 60 minutes prior to addition of SOS
Your answer should be a plain number; it is taken to be in nM.

C=CC(=O)N1CCN(c2nc(=O)n3c4nc(c(F)cc24)-c2c(F)cccc2OCCCCc2cnc(C(C)C)c-3c2)[C@@H](C)C1 (single isomer, unassigned) [Example 16a] = 9.8
C=CC(=O)N1CCN(c2nc(=O)n3c4nc(c(F)cc24)-c2c(F)cccc2OCCCc2ccnc(C(C)C)c2-3)[C@@H](C)C1 (single isomer, unassigned) [Example 10b] = 2590
C=CC(=O)N1C[C@H](C)N(c2nc(=O)n3c4nc(c(Cl)cc24)-c2c(ccc(F)c2F)OCCCc2ncnc(C(C)C)c2-3)C[C@H]1C = 0.51
C=CC(=O)N1CCN(c2nc(=O)n3c4nc(c(F)cc24)-c2c(F)cccc2CCOCCc2ccnc(C(C)C)c2-3)[C@@H](C)C1 [Example 17a] = 11
C=CC(=O)N1CC(C)N(c2nc(=O)n3c4nc(c(C)cc24)-c2c(F)ccc(F)c2OCCOc2ccnc(C(C)C)c2-3)CC1C (stereo not drawn) = 4.5
C=CC(=O)N1C[C@H](C)N(c2nc(=O)n3c4nc(c(F)cc24)-c2c(ccc(F)c2F)OCC2(CC2)Cc2ccnc(C(C)C)c2-3)C[C@H]1C = 0.71

Please look up its IC50: C=CC(=O)N1CCN(c2nc(=O)n3c4nc(c(F)cc24)-c2c(ccc(F)c2F)OCC(F)(F)CCc2ccnc(C(C)C)c2-3)[C@@H](C)C1 0.56

Please look up its IC50: C=CC(=O)N1CCN(c2nc(=O)n3c4nc(c(F)cc24)-c2c(F)cccc2C(=O)NCCCc2ccnc(C(C)C)c2-3)[C@H](C)C1 [Example 19b] 4520

Please look up its IC50: C=CC(=O)N1C[C@H](C)N(c2nc(=O)n3c4nc(c(F)cc24)-c2c(F)cccc2OCCCCc2cnc(C(C)C)c-3c2C)C[C@H]1C (single isomer, unassigned) [Example 89] 71

Please look up its IC50: C=CC(=O)N1C[C@H](C)N(c2nc(=O)n3c4nc(c(F)cc24)-c2cccc4cnn(c24)CCCCc2ccnc(C(C)C)c2-3)C[C@H]1C 4.5

Please look up its IC50: C=CC(=O)N1CCN(c2nc(=O)n3c4nc(c(F)cc24)-c2cccnc2OCCCOc2ccnc(C(C)C)c2-3)[C@@H](C)C1 (single isomer, unassigned) 2680

Please look up its IC50: C=C(C#N)C(=O)N1C[C@H](C)N(c2nc(=O)n3c4nc(c(Cl)cc24)-c2c(F)ccc(F)c2OCCCc2ccnc(C(C)C)c2-3)C[C@H]1C 195

----------
study-system: Biotinylated KRAS G12C protein (Homo sapiens (Human), UniProt P01116, C118S/C51S/C80L/G12C)
procedure-text: SOS-catalyzed nucleotide exchange assay (TR-FRET)
Assay type: biochemical
protocol-conditions: in vitro apparent potency; preincubation time of 60 minutes prior to addition of SOS
quantity-measured: IC50

Please review the entries below; each comes with its answer.
C=CC(=O)N1C[C@H](C)N(c2nc(=O)n3c4nc(c(F)cc24)-c2c(F)c(F)cc(F)c2OCCCc2ccnc(C(C)C)c2-3)C[C@H]1C = 2.4 nM
C=CC(=O)N1C[C@H](C)N(c2nc(=O)n3c4nc(c(F)cc24)-c2c(F)cccc2OCCOc2c(Cl)cnc(C(C)C)c2-3)C[C@H]1C = 1.8 nM
C=CC(=O)N1C[C@H](C)N(c2nc(=O)n3c4nc(c(Cl)cc24)-c2c(F)cccc2OCCCc2ccnc(C(C)C)c2-3)C[C@H]1C = 3.6 nM

Please look up its IC50: C=CC(=O)N1C[C@H](C)N(c2nc(=O)n3c4cc(c(F)cc24)-c2c(F)ccc(F)c2OCCOc2ccnc(C(C)C)c2-3)C[C@H]1C 31 nM

Please look up its IC50: C=CC(=O)N1CC(C)N(c2nc(=O)n3c4nc(c(Cl)cc24)-c2c(F)ccc(F)c2OCCOc2ccnc(C(C)C)c2-3)CC1C (stereo not drawn) 1.1 nM

Please look up its IC50: C=CC(=O)N1C[C@H](C)N(c2nc(=O)n3c4nc(c(F)cc24)-c2c(F)cccc2OCCc2ccnc(C(C)C)c2-3)C[C@H]1C 3.8 nM

----------
study-system: Biotinylated KRAS G12C protein (Homo sapiens (Human), UniProt P01116, C118S/C51S/C80L/G12C)
procedure-text: SOS-catalyzed nucleotide exchange assay (TR-FRET)
Format: biochemical
protocol-conditions: in vitro apparent potency; preincubation time of 60 minutes prior to addition of SOS
// IC50 lookup, one value per entry
Your answer should be a plain number; it is taken to be in nM.

Please review the entries below; each comes with its answer.
C=CC(=O)N1C[C@@H]2C[C@H]1CN2c1nc(=O)n2c3nc(c(F)cc13)-c1c(F)cccc1OCCCCc1ccnc(C(C)C)c1-2 = 1470
C=CC(=O)N1C[C@H](C)N(c2nc(=O)n3c4nc(c(F)cc24)-c2c(F)ccc(F)c2OCCOc2ccnc(C4CC4)c2-3)C[C@H]1C = 17
C=CC(=O)N1CCN(c2nc(=O)n3c4nc(c(F)cc24)-c2c(F)cccc2OCCOc2ccnc(C(C)C)c2-3)[C@@H](C)C1 (single isomer, unassigned) [Example 12a] = 3.9
C=CC(=O)N1C[C@H](C)N(c2nc(=O)n3c4nc(c(F)cc24)-c2cc(F)c(F)cc2OCCOc2ccnc(C(C)C)c2-3)C[C@H]1C = 38
C=CC(=O)N1CCN(c2nc(=O)n3c4nc(c(F)cc24)-c2c(F)cccc2OCCCc2ccnc(C(C)C)c2-3)C(C(F)F)C1 (centres unmarked) = 12

Please look up its IC50: C=CC(=O)N1CCN(c2nc(=O)n3c4nc(c(F)cc24)-c2c(F)cccc2OCCCc2ccnc(C(C)C)c2-3)C(C)(C)C1 35

Please look up its IC50: [2H]C1([2H])Oc2ccc(F)c(F)c2-c2nc3c(cc2Cl)c(N2CC(C)N(C(=O)C=C)CC2C)nc(=O)n3-c2c(ccnc2C(C)C)OC1([2H])[2H] (centres unmarked) 0.51

Please look up its IC50: C=CC(=O)N1C[C@H](C)N(c2nc(=O)n3c4nc(c(F)cc24)-c2c(F)cccc2OCCCCc2cnc(C(C)C)c-3c2C)C[C@H]1C [Example 88] 1.1
